Could you please report measured EC50 (read off the curve) for the items listed next?
# measured.on: human OX40, cell surface-expressed (human) (UniProt P43489)
# Sequence (P43489 29-277): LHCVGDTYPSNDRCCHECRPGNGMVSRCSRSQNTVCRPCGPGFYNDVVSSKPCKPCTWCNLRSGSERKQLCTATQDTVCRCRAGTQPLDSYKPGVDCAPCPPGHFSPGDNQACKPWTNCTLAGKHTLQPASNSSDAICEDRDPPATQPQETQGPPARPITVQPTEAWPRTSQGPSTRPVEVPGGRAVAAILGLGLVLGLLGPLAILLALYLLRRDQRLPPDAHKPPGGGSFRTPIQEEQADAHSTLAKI
# test.name: flow cytometry, ExpiCHO-S cells with human OX40
Give the value in ng/mL but do not write ng/mL after it.

Could you tell me which EC50 (read off the curve) is on file for IgG1-CD134-ABBV368 (antibody, INN chains, looked up, V domains shown, IgG1) VH: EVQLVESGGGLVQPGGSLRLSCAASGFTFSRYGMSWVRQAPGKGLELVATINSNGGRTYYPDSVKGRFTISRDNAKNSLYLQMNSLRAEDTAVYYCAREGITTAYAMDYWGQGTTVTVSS VL: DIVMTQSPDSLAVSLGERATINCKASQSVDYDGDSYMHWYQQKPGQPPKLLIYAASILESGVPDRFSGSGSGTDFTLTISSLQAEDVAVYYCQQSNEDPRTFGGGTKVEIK ?
5

Could you tell me which EC50 (read off the curve) is on file for IgG1-CD134-GBR830 (antibody, INN chains, looked up, V domains shown, IgG1) VH: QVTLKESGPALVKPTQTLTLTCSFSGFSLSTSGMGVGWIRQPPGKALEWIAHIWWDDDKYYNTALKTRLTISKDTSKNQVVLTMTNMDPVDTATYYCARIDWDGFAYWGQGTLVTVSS VL: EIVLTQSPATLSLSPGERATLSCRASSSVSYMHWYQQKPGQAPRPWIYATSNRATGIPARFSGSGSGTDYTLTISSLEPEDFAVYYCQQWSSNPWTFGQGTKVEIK ?
50

Could you tell me which EC50 (read off the curve) is on file for IgG1-CD134-RG7888 (antibody, INN chains, looked up, V domains shown, IgG1) VH: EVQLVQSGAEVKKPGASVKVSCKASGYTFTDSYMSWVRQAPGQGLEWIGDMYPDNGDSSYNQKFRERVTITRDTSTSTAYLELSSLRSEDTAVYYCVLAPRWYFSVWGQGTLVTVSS VL: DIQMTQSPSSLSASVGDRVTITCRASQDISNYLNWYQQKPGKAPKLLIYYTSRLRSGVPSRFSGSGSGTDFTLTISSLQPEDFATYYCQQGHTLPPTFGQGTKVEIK ?
7
